B1: EHEE_rd2_0601 (parent)
chain: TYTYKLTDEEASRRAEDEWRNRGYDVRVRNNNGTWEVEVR

# Variants of: B1
# Method Description: folding stability dG (cDNA display proteolysis); higher = more stable
# Recorded Conditions: PBS, room temperature
# key: entry, value: folding stability dG
Measurement Type: folding stability dG (kcal/mol)

- A11L: 0.971
- T1N: 1.19
- T3R: 1.12
- E10L: 1.34
- E9D: 0.289
- R22W: 0.762
- E18L: 2.04
- R22Y: 0.488
- S12I: 0.918
- D17Y: 1.77
- R29E: 0.726
- N32R: 0.859
- T7Y: 2.02
- E18D: 1.21
- T1D: 0.915
- E10D: 1.38
- A15M: 2.13
- E36H: 0.826
- R20S: 0.589
- E38L: 1.28
- R20F: 0.22
- Y4I: 1.58
